Data origin, for the record: the supplement of paper PMC8728848

Target: Fuc(a1-2)[GalNAc(a1-3)]Gal(b1-4)GlcNAc(b1-3)Gal(b1-4)GlcNAc(b1-3)Gal(b1-4)GlcNAc
Assay: glycan array binding signal (z-score within array); higher = stronger binding
Conditions: glycan notation: IUPAC condensed, linker removed
The full list was thinned out, with the strongest signals kept by preference.
Listing of entries alongside the reported glycan array binding signal (z-score).
Measured metric: glycan array binding signal (z-score)

{"columns": ["Binder", "Measured metric", "Val"],
 "data": [
  ["BabA (Helicobacter pylori), O52269_HELPY (protein) AEDDGFYMSAGYQIGEAAQMVKNTKGIQELSDNYENLSNLLTRYSTLNTLIKLSADPSAVNAARENLGASAKNLIGDTKNSPAYQAVLLAINAAVGFWNVVGYVTQCGGNANGQKSTSSTTIFNNEPGYRSTSITCSLNGHMPGYYGPMSIENFKKLNEAYQILQTALKNGLPALKENNGTVNVTYSYTCSGEGNDNCSLQTTGVTNQNNGTKTETQTIDGKSVTTTISSKVVDSQ", "glycan array binding signal (z-score)", -0.054],
  ["GH98CBM51-1 (Streptococcus pneumoniae) (protein) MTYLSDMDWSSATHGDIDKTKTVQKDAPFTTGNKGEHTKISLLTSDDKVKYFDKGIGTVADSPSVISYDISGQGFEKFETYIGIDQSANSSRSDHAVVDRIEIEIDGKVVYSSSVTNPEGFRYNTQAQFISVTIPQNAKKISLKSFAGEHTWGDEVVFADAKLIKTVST", "glycan array binding signal (z-score)", 4.91],
  ["Als3-41 (Candida albicans) (protein) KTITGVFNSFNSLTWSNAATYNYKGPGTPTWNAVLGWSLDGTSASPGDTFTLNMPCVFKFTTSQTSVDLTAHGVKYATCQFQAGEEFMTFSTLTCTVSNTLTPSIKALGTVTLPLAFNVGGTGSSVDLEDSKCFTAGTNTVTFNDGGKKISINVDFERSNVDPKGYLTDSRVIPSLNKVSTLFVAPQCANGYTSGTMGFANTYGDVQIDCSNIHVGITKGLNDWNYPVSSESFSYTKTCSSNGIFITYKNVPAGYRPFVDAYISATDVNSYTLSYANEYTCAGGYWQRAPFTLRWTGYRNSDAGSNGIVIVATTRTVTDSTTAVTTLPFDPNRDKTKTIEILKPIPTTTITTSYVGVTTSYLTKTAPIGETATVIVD", "glycan array binding signal (z-score)", 1.63],
  ["LlpA (Burkholderia cenocepacia) (protein) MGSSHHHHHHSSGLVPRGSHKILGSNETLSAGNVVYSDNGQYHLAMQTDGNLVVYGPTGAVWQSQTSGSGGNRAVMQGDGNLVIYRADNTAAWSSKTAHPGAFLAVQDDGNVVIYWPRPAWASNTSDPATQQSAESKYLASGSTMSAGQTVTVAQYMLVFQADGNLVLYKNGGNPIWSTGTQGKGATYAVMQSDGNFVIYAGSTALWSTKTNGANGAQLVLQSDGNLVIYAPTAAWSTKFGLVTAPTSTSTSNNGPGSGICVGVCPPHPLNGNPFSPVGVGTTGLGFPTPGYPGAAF", "glycan array binding signal (z-score)", 1.26],
  ["SRS2 (Toxoplasma gondii), O15695 (protein) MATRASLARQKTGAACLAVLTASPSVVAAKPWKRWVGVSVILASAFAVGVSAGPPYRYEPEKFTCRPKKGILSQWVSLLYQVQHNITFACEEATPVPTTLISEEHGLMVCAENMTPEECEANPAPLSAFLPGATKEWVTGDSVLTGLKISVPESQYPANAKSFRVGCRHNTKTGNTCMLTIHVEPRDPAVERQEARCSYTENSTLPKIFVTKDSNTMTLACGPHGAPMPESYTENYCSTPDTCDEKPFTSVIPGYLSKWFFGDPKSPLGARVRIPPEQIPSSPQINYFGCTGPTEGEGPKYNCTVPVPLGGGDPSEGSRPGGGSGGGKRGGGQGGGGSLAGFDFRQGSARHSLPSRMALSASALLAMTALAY", "glycan array binding signal (z-score)", 0.391],
  ["FimA-N1 (Actinomyces oris) (protein) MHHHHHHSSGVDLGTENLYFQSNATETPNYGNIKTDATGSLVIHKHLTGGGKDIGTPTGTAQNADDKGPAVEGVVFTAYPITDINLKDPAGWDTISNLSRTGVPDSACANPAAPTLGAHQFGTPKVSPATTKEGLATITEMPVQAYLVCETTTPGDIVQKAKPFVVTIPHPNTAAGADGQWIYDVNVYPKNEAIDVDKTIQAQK", "glycan array binding signal (z-score)", -0.23],
  ["SRS6 (Toxoplasma gondii), Q9NH12 (protein) MARTGSMQQRRGGFQTTARMLMAVCVSGVLLLSSGPSSANKLTEGQQNQNSGPGAATQEGPTIEGAVAKCVLKTTAAENGSSRAKNTTGLTLSKENLVVSLQCSGEKNAIVPKDQKKVCSAAPNAKVADCKGADTDKQVTLKSLLGTSGDIQWEKTIVSTDNKGEVMTLKIKESELPLFDKAFFVGCEEDKAQTRTSQATECKVNVSVKARPSTVGENNVVTCAYGKDSNPRPLEVEMSADNDTLTIDCGTDGSLKPTKYTEEFCVTDNSQLESCTTKKFSEILPTFLPSWWVSDSQNGSAKLTIPESGFPEEQQQFRLGCVPKKTTQSPQANPSVKTEKEEGAQNTDASTSNCSVIVTVKASNFSSLASSIAPTAAVAGGAAALTGFLVGSF", "glycan array binding signal (z-score)", -0.105],
  ["F17aG (Escherichia coli), Q99003 (protein) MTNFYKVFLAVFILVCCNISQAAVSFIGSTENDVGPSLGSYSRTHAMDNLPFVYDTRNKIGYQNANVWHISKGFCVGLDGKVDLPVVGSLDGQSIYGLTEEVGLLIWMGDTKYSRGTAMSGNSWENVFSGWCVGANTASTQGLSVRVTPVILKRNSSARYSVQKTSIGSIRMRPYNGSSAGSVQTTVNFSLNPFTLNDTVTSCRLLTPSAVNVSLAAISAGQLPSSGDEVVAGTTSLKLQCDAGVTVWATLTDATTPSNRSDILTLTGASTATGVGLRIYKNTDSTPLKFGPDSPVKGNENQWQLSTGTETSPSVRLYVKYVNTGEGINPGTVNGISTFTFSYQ", "glycan array binding signal (z-score)", 0.023],
  ["Epa8 (Candida glabrata) (protein) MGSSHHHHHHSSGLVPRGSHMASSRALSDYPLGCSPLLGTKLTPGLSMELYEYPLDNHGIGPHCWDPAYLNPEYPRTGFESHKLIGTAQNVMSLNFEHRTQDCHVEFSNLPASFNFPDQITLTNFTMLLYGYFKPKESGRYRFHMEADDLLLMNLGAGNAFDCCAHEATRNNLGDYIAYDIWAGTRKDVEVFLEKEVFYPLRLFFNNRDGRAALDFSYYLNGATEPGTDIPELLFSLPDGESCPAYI", "glycan array binding signal (z-score)", 0.493]
]}
